target: Cyclin-dependent kinase 1 (Homo sapiens, UniProt P06493)
Sequence (P06493 whole entry): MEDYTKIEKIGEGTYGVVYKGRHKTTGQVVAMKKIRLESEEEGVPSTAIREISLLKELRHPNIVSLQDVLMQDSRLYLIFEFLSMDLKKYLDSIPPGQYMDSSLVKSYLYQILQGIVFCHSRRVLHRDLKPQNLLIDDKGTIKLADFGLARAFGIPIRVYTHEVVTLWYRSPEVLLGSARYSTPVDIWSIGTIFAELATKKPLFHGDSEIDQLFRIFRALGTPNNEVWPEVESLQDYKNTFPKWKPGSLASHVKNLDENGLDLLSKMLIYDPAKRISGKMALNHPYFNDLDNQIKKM
pKi: −log10 of the molar value.
Quantity name: pKi

Compound structure string	pKi
COc1ccccc1C(=O)c1cnc(NC2CCN(C(C)=O)CC2)nc1N	6.74

[P] COc1cccc(F)c1C(=O)c1cnc(NC2CCN(S(C)(=O)=O)CC2)nc1N
[Q] COc1cc(F)c(F)c(F)c1C(=O)c1cnc(NC2CCN(S(C)(=O)=O)CC2)nc1N
Enquiry: Of P and Q , which one carries the higher reported pKi? Kindly state the label of the option you pick.
Return: Q
(Q: 8.30, P: 7.77)

====

experiment: in vivo; settings: nude, mouse, iv, 10 mg/kg
Description: Clearance in nude mouse at 10 mg/kg, iv
Quantity name: clearance (mL/min/kg)
Numeric only. Scale: mL/min/kg

Enquiry: Which clearance is listed for COc1ccc(F)cc1C(=O)c1cnc(NC2CCN(S(C)(=O)=O)CC2)nc1N ?
Return: 48.3

====

pKi: −log10 of the molar value.
pKi, UniProtKB P24941, per-entry values.
Quantity name: pKi

Compound structure string	Quantity name	Endpoint value
COc1cc(F)c(F)c(F)c1C(=O)c1cnc(NC2CCN(S(C)(=O)=O)CC2)nc1N	pKi	8.70
CCCC(=O)N1CCC(Nc2ncc(C(=O)c3ccccc3OC)c(N)n2)CC1	pKi	6.05
COc1cccc(F)c1C(=O)c1cnc(NC2CCN(S(C)(=O)=O)CC2)nc1N	pKi	7.89

[1] CS(=O)(=O)N1CCC(Nc2ncc(C(=O)c3c(F)cccc3F)c(N)n2)CC1
[2] COc1cc(F)ccc1C(=O)c1cnc(NC2CCN(S(C)(=O)=O)CC2)nc1N
[3] CCOC(=O)N1CCC(Nc2ncc(C(=O)c3ccccc3OC)c(N)n2)CC1
Enquiry: Put the items in order so that reported pKi rises from first to last. Hello, could you send the labels back in the order asked? Thank you.
Return: 3, 2, 1

====

pKi: −log10 of the molar value.
pKi, Cyclin-dependent kinase 4/cyclin D1 (Homo sapiens), per-entry values.

A selection of reference data follows.
Compound structure string	Quantity name	Endpoint value
COc1ccccc1C(=O)c1cnc(NC2CCN(C)CC2)nc1N	pKi	< 6.00
CCOC(=O)N1CCC(Nc2ncc(C(=O)c3ccccc3C)c(N)n2)CC1	pKi	6.18

Moving on to the next compound.
Enquiry: Value wanted: pKi (Cyclin-dependent kinase 4/cyclin D1 (Homo sapiens)) of entry CN1CCN(c2ccc(Nc3ncc(C(=O)c4cccc(C(F)(F)F)c4)c(N)n3)cc2)CC1
Return: < 6.00

====

pKi, Cyclin-dependent kinase 4/cyclin D1 (Homo sapiens), per-entry values.
pKi: −log10 of the molar value.
Quantity name: pKi

Compound structure string	Tested on	pKi
COc1cc(F)ccc1C(=O)c1cnc(NC2CCN(S(C)(=O)=O)CC2)nc1N	Cyclin-dependent kinase 4/cyclin D1 (Homo sapiens)	7.68
CS(=O)(=O)N1CCC(Nc2ncc(C(=O)c3c(F)cccc3F)c(N)n2)CC1	Cyclin-dependent kinase 4/cyclin D1 (Homo sapiens)	7.77

[1] CCOc1ccccc1C(=O)c1cnc(NC2CCN(C(C)=O)CC2)nc1N
[2] COc1c(C(=O)c2cnc(NC3CCN(S(C)(=O)=O)CC3)nc2N)cc(F)c(F)c1F
[3] CN1CCN(c2ccc(Nc3ncc(C(=O)c4cccc(F)c4)c(N)n3)cc2)CC1
[4] CCS(=O)(=O)N1CCC(Nc2ncc(C(=O)c3ccccc3OC)c(N)n2)CC1
[5] COc1cccc(F)c1C(=O)c1cnc(NC2CCN(S(C)(=O)=O)CC2)nc1N
Enquiry: Sort by pKi, descending. Hello, could you send the labels back in the order asked? Thank you.
Return: 5, 4, 2, 3, 1
(5: 8.52, 4: 7.80, 2: 6.57, 3: 6.35, 1: 6.01)

====

Ki, UniProt:P24941, per-entry values.

Enquiry: Value wanted: Ki (UniProt:P24941) of entry CN1CCN(c2ccc(Nc3ncc(C(=O)c4ccccc4C(F)(F)F)c(N)n3)cc2)CC1
Return: > 10 µM

Enquiry: Value wanted: Ki (UniProt:P24941) of entry CN1CCN(c2ccc(Nc3ncc(C(=O)c4cccc(C(F)(F)F)c4)c(N)n3)cc2)CC1
Return: > 10 µM

Enquiry: Value wanted: Ki (UniProt:P24941) of entry CN1CCN(c2ccc(Nc3ncc(C(=O)c4cccc(F)c4)c(N)n3)cc2)CC1
Return: > 10 µM

====

Ki, Cyclin-dependent kinase 4/cyclin D1 (Homo sapiens, UniProt P11802), per-entry values.
Quantity name: Ki (nM)

Compound structure string	Tested on	Quantity name	Endpoint value
COc1ccc(F)cc1C(=O)c1cnc(NC2CCN(S(C)(=O)=O)CC2)nc1N	Cyclin-dependent kinase 4/cyclin D1 (Homo sapiens, UniProt P11802)	Ki	7

[P] CCNC(=O)N1CCC(Nc2ncc(C(=O)c3ccccc3OC)c(N)n2)CC1
[Q] CN1CCN(c2ccc(Nc3ncc(C(=O)c4ccccc4C(F)(F)F)c(N)n3)cc2)CC1
[R] COc1ccccc1C(=O)c1cnc(NC2CCN(C(C)=O)CC2)nc1N
[S] COc1cc(F)c(F)cc1C(=O)c1cnc(NC2CCN(S(C)(=O)=O)CC2)nc1N
Enquiry: Put the items in order so that reported Ki rises from first to last. Hello, could you send the labels back in the order asked? Thank you.
Return: S, R, P, Q
(S: 6 nM, R: 66 nM, P: 409 nM, Q: 821 nM)
